- System: human FPR2 (Homo sapiens (Human))
- Sequence (P25090 whole entry): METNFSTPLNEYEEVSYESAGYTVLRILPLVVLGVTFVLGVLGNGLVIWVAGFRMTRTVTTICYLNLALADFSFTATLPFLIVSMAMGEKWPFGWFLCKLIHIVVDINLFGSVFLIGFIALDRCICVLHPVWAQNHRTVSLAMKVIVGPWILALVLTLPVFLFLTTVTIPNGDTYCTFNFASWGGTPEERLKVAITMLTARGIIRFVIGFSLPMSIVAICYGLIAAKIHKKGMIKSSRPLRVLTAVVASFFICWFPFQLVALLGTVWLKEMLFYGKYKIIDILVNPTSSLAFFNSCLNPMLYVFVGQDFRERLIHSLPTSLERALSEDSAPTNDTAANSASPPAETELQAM
- Protocol: FPR2 cyclic adenosine monophosphate (cAMP) assay
- Assay type: cell-based
- Condition: CHO cells overexpressing human FPR2; forskolin 5 µM; inhibition of cAMP production; read-out: hFPR2 cAMP2 EC50
pEC50: −log10 of the molar value.
Measured parameter: pEC50

> print(dat)
                              sample.smiles  measured.parameter  number
1  COc1ccc([C@@H]2CN(c3cccn(CC(F)F)c3=O)C(=O)[C@H]2NC(=O)c2ccc(OC(F)F)cc2)cc1               pEC50    8.59

[P] COc1cc(F)c([C@@H]2CN(c3c(C)ccn(CC4CC4)c3=O)C(=O)[C@H]2NC(=O)c2ccc(OC(F)F)cc2)c(F)c1
[Q] COCCn1c(C)ccc(N2C[C@@H](c3c(F)cc(OC)cc3F)[C@H](NC(=O)c3ccc(OC(F)F)cc3)C2=O)c1=O
(Q) Given the two records P and Q , choose the one whose pEC50 value is lower. Answer = label.
(A) Q
(Q: 7.77, P: 8.28)

---

- System: human FPR1 (Homo sapiens (Human), UniProt P21462)
- Sequence (P21462 whole entry): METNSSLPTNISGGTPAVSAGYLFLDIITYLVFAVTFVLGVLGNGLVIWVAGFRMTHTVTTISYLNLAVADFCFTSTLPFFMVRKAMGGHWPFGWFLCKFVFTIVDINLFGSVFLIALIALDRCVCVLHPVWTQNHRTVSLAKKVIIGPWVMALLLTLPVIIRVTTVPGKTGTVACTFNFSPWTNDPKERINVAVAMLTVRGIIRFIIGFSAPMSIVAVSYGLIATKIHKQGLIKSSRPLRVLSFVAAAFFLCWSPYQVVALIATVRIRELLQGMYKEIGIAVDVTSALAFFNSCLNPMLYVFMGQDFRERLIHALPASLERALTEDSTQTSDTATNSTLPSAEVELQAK
- Protocol: FPR1 cyclic adenosine monophosphate (cAMP) assay
- Condition: CHO cells overexpressing human FPR1; forskolin 10 µM; inhibition of cAMP production; read-out: hFPR1 cAMP EC50
Measured parameter: EC50 (nM)

Compound	EC50 [nM]
COc1cc(CO)nc(N2C[C@@H](c3c(F)cc(OC)cc3F)[C@H](NC(=O)c3ccc(OC(F)F)cc3)C2=O)c1	1300
COc1cc(C)nc(N2C[C@@H](c3c(F)cc(OC)cc3F)[C@H](NC(=O)c3ccc(OC(F)F)cc3)C2=O)c1	410
COCC(C(=O)N(C)C)n1cccc(N2C[C@@H](c3c(F)cc(OC)cc3F)[C@H](NC(=O)c3ccc(OC(F)(F)F)cc3)C2=O)c1=O (stereo partly drawn) [Example 134]	1.6

[I] COc1cc(F)c([C@@H]2CN(Cc3ccccc3P(C)(C)=O)C(=O)[C@H]2NC(=O)c2ccc(OC(F)(F)F)cc2)c(F)c1
[II] COc1cc(CO)nc(N2C[C@@H](c3c(F)cc(OC)cc3F)[C@H](NC(=O)c3ccc(OC(F)(F)F)cc3)C2=O)c1
[III] COc1ccc([C@@H]2CN(c3cccn(CC(OC)C(F)(F)F)c3=O)C(=O)[C@H]2NC(=O)c2ccc(OC(F)(F)F)cc2)cc1 (stereo partly drawn)
(Q) Highest EC50 first, then in falling order down to the smallest. // list labels; follow requested order
(A) II, I, III

---

- System: UniProt P25090
- Protocol: FPR2 cyclic adenosine monophosphate (cAMP) assay
- Type: cell-based
- Condition: CHO cells overexpressing human FPR2; forskolin 5 µM; inhibition of cAMP production; read-out: hFPR2 cAMP2 EC50
pEC50: −log10 of the molar value.
Measured parameter: pEC50

Compound	pEC50
COc1cc(F)c([C@@H]2CN(c3ccc4n(c3=O)CCOC4=O)C(=O)[C@H]2NC(=O)c2ccc(OC(F)(F)F)cc2)c(F)c1 [Example 667]	7.20

[a] COc1cc(F)c([C@@H]2CN(c3nccc(NCC(C)O)c3C(F)(F)F)C(=O)[C@H]2NC(=O)c2ccc(OC(F)F)cc2)c(F)c1 (stereo partly drawn) [Example 129]
[b] COc1cc(F)c([C@@H]2CN(c3cc(F)cc(OC(C)C)c3)C(=O)[C@H]2NC(=O)c2ccc(OC(F)F)cc2)c(F)c1 [Example 29]
(Q) Select one: a or b . Criterion: greater recorded pEC50. Answer = label.
(A) a
(a: 8.48, b: 7.29)
